Examples of compounds with documented EC50 follow.
studyTarget: ΔF508-CFTR (Homo sapiens, UniProt P13569, DEL508-508)
Construct: host or cells: CFBE41o-, doxycycline-inducible
Sequence (P13569 with tags, fused parts or gaps DEL508-508): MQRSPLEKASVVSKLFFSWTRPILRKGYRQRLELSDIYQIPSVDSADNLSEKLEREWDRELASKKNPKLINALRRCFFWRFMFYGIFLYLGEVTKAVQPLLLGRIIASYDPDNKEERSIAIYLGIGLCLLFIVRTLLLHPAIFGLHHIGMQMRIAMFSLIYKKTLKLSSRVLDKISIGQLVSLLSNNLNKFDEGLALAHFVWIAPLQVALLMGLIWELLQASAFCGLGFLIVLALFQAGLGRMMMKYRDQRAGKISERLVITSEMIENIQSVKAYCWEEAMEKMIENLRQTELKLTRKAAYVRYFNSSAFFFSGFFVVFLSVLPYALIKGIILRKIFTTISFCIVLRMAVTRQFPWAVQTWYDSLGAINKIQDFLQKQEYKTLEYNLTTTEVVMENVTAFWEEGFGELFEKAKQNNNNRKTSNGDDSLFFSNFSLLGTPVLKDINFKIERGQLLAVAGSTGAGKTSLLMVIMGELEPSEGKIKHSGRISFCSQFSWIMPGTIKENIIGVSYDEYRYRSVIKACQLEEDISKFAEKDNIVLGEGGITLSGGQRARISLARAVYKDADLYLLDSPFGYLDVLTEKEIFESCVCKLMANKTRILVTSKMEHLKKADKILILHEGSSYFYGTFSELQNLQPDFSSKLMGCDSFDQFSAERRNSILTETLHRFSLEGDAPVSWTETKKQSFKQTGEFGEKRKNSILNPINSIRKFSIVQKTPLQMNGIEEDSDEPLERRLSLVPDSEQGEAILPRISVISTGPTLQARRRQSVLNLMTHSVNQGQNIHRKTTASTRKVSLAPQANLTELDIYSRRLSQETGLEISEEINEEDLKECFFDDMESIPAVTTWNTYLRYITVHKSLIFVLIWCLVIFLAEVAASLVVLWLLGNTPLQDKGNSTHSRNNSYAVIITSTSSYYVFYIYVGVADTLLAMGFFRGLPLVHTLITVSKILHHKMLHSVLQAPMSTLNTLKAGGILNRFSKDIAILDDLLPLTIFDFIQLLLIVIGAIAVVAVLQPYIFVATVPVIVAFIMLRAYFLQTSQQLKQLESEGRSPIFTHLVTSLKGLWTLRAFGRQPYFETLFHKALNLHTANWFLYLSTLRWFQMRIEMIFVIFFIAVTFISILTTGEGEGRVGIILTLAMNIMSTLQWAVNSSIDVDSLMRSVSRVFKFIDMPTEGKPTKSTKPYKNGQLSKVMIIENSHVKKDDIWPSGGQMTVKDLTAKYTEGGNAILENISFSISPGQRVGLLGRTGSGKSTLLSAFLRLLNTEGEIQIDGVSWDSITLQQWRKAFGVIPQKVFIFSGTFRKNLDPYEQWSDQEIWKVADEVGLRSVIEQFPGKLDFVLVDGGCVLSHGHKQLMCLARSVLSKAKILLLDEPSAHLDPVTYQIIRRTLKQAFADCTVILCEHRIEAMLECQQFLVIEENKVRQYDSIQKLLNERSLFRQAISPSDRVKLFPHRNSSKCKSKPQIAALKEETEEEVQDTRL
experimentNotes: CFTR cell surface levels using HRP-tagged ΔF508-CFTR expressing CFBE cells, in the presence of a co-corrector
Type: cell-based
conditionsUsed: HRP-tagged ΔF508-CFTR expressing CFBE cells, in the presence of 3 μM co-corrector; read-out: EC50

{"columns": ["compound", "EC50 / nM"],
 "data": [
  ["O=C(O)c1cc(N2CC(OCC(F)F)C2)c2c(C3CCC3)nn(-c3ccccc3)c2n1 [compound 513]", 472],
  ["CN(C)CC(C)(C)COc1cc(C(=O)O)nc2c1c(C1CCC1)nn2-c1ccccc1 [compound 636]", 790],
  ["COCCN(C)c1ncc(-c2cc(C(=O)O)nc3c2c(C(C)C)nn3-c2cccc(N3CCOCC3)c2)cn1 [compound 230]", 514],
  ["O=C(O)c1cc(N2CC(N3CCCCC3)C2)c2c(C3CCC3)nn(-c3ccccc3)c2n1 [compound 466]", 1290],
  ["O=C(O)c1cc(N2CCC(CN3CCOCC3)CC2)c2c(C3CCC3)nn(-c3ccc(F)cc3)c2n1 [compound 821]", 134],
  ["CC(=O)N1CCN(c2cc(C(=O)O)nc3c2c(C)nn3-c2ccccc2)CC1 [compound 132]", 3340],
  ["CC(C)c1nn(-c2ccc(F)cc2)c2nc(C(=O)O)cc(N3CC(C4CN(C)CCO4)C3)c12 (stereo not shown) [compound 740]", 424],
  ["COc1cc(F)cc(-n2nc(C3CCC3)c3c(N4CCC(N5CCOCC5)CC4)cc(C(=O)O)nc32)c1 [compound 913]", 163],
  ["O=C(O)c1cc(N2CC[C@H](F)[C@H](O)C2)c2c(C3CCC3)nn(-c3ccccc3)c2n1 [compound 535]", 1410],
  ["CN1CCC(C2CCN(c3cc(C(=O)O)nc4c3c(C3CCC3)nn4-c3ccccc3)CC2)CC1 [compound 454]", 636],
  ["O=C(O)c1cc(N2CCC(F)(F)CC2)c2c(C3CCC3)nn(-c3ccccc3)c2n1 [compound 594]", 621],
  ["CC(C)c1nn(-c2ccc(F)cc2)c2nc(C(=O)O)cc(N3CCN(CC4CCCN(C)C4)CC3)c12 (stereo not shown) [compound 791]", 1670],
  ["Cc1nn(-c2ccccc2)c2nc(C(=O)O)cc(N3CC4(CCCC4)C3)c12 [compound 307]", 1540],
  ["CC1(c2nn(-c3ccccc3)c3nc(C(=O)O)cc(-c4ccc(N5CCOCC5)cc4)c23)CCC1 [compound 332]", 917],
  ["CC(C)c1nn(-c2ccc(F)cc2)c2nc(C(=O)O)cc(N3CCC(CCCN4CCCC4)CC3)c12 [compound 749]", 277],
  ["CC(C1CCN(c2cc(C(=O)O)nc3c2c(C2CCC2)nn3-c2ccccc2)CC1)N1CCOCC1 (stereo not shown) [compound 683]", 60.7]
]}
